# Test system: luciferase gene expression in HEK 293 cells in response to Comp. 004
# ASSAY OVERVIEW: Screen of riboswitch constructs with 12C6-1 variant aptamers (libraries N1-N5) against Comp. 004, luciferase in HEK 293 cells
# Format: cell-based, human
# MEASUREMENT CONDITIONS: library N2 variant aptamers (J2-3, P3-J3-3a, J3a-2 randomized) of 12C6-1 in riboswitch constructs; in response to Comp. 004; HEK 293 cells
Listing: Fold (induction of luciferase gene expression) of selected substances
MEASURED ATTRIBUTE: Fold (induction of luciferase gene expression) (fold)

>>> print(df.to_string())
                                  substance                             target_system  units_symbol  measured
0  N2_2H7 (CTGGGGAGTCCTTCATGC; chemistry not given here)  luciferase gene expression in HEK 293 cells in response to Comp. 004          fold       0.8
1  N2_2B12 (CTGGGGAGTCCTTCATGC; chemistry not given here)  luciferase gene expression in HEK 293 cells in response to Comp. 004          fold       1.0
2  N2_2F7 (DNA CTGGGGAGTCCTTCATGC; chemistry not given here)  luciferase gene expression in HEK 293 cells in response to Comp. 004          fold       1.0
3  N2_2E12 (DNA CTGGGGAGTCCTTCATGC; chemistry not given here)  luciferase gene expression in HEK 293 cells in response to Comp. 004          fold       1.3
4  N2_2B6 (CTGGGGAGTCCTTCATGC; chemistry not given here)  luciferase gene expression in HEK 293 cells in response to Comp. 004          fold       0.8

These measurements were taken from patent US20250101436A1.
